# Tested on: RXF 393
# METHOD DESCRIPTION: NCI tumour cell line growth inhibition, 48 h
The source made the active and inactive calls. Cut-off read from the data, not from the text of the source: active = GI50 up to about 1.1 µM and inactive = higher.
Parameter call: string, one of t for active, f for inactive

In: Outcome? CC(C)(Cl)C(Br)CCC(C)(Cl)C(Br)CBr (stereo not given)
Out: f

In: Outcome? CN1C2CCC1CC(CC(=O)NC(c1ccc(F)cc1)c1ccc(F)cc1)C2 (stereo not given)
Out: f

In: Outcome? COc1cc([C@@H]2c3cc4c(c(O)c3C[C@H]3COC(=O)[C@@H]32)OCO4)cc(OC)c1O
Out: t

In: Outcome? Cc1ccccc1NC(=O)CC(=O)NNC(Sc1ccccc1)c1cc(/N=N/c2ccc(Br)cc2)ccc1O (stereo not given)
Out: f

In: Outcome? O=C1C=C(c2c(O)ccc3ccccc23)c2ccccc2C1=O
Out: f
